Could you please report measured melting point for the items listed next?

N#Cc1ccc(OCc2ccc3c(c2)OCO3)cc1OC(C(=O)O)c1ccccc1C(F)(F)F (racemic) ... 137 to 138 °C
CC(=O)N1CCC(c2nn(-c3ccccc3)c3cc(F)ccc23)CC1 ... 126 to 128 °C
CC1(C)OC(c2ccc(S(C)(=O)=O)cc2)=C(c2cccc(C(F)(F)F)c2)C1=O ... 115 to 116 °C

Dear colleague, could you please provide melting point for the compounds listed below?
1. FC(F)(F)c1nncn1-c1ccc(Cl)cc1
2. COC(=O)c1ccccc1-c1ccc(COS(C)(=O)=O)cc1

108 °C
43 to 45 °C

Dear colleague, could you please provide melting point for the compounds listed below?
1. CC(=O)SCCC(=O)N1C(C(=O)O)CC2CCCCC21 (stereo not drawn)
2. O=C(CN1CCOCC1)Nc1cccc2nc(N[C@@H]3CCc4ccccc43)ccc12
3. O=C(CCCCCNC(=O)C(=O)c1cn2c3c(cccc13)CCC2)NOCc1ccccc1
4. CC(=O)NC[C@H]1CN(c2ccc(N3CCC(F)(CC#N)CC3)c(F)c2)C(=O)O1
5. Oc1cc(-c2ncc(C(F)(F)F)cc2F)c(F)cc1Cl
6. CC(C)c1[nH]nc2c1C(=O)c1c(NC(=O)CN3CCC(C(N)=O)CC3)cccc1-2
7. O=C(NCc1ccccc1)C1Cc2ccccc2N1S(=O)(=O)c1ccc(-c2ccc(F)cc2)cc1 (stereo not drawn)

1. 131 to 133 °C
2. 179 °C
3. 119 to 121 °C
4. 210 to 212 °C
5. 94 to 96 °C
6. 224 to 225 °C
7. 65 °C

Quick note, melting point for O=C(Nc1ccccc1)C1=C(C(F)(F)F)S(=O)(=O)CCS1(=O)=O landed at 105 to 108 °C

Each recorded value in this set is attributed to a melting point compilation (Tetko et al.; mined from patent text by program, amines drawn as free bases though some values may be those of a salt).
